Biological target: α4β7 integrin binding to human MAdCAM-1-Ig (Homo sapiens, UniProt P13612+P26010)
Construct: endogenous in cells
Sequence (P13612 34-1032): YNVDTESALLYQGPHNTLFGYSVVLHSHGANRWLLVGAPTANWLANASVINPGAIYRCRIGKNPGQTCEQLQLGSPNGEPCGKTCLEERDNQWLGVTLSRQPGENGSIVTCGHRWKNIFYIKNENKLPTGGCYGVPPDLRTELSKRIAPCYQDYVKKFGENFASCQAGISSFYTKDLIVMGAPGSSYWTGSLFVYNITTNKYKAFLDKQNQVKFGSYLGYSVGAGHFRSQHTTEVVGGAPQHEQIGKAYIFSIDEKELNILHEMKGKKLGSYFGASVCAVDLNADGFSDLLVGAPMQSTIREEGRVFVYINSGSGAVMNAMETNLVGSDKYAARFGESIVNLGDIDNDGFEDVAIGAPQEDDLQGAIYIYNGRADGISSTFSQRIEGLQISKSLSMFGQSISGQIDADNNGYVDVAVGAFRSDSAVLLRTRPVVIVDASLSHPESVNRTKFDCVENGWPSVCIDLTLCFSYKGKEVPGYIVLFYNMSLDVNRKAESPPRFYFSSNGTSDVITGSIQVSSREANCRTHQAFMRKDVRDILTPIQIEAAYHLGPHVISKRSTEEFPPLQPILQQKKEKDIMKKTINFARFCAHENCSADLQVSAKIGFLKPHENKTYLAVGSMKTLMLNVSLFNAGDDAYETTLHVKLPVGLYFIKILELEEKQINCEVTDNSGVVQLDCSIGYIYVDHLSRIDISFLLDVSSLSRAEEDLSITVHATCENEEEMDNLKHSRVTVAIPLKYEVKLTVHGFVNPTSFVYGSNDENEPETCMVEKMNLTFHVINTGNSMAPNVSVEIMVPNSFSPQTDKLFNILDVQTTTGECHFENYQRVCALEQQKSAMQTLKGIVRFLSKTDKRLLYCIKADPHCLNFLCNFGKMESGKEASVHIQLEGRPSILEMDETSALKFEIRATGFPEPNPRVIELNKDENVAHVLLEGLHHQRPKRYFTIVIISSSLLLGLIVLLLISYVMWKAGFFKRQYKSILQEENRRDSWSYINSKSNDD
Sequence (P26010 20-798): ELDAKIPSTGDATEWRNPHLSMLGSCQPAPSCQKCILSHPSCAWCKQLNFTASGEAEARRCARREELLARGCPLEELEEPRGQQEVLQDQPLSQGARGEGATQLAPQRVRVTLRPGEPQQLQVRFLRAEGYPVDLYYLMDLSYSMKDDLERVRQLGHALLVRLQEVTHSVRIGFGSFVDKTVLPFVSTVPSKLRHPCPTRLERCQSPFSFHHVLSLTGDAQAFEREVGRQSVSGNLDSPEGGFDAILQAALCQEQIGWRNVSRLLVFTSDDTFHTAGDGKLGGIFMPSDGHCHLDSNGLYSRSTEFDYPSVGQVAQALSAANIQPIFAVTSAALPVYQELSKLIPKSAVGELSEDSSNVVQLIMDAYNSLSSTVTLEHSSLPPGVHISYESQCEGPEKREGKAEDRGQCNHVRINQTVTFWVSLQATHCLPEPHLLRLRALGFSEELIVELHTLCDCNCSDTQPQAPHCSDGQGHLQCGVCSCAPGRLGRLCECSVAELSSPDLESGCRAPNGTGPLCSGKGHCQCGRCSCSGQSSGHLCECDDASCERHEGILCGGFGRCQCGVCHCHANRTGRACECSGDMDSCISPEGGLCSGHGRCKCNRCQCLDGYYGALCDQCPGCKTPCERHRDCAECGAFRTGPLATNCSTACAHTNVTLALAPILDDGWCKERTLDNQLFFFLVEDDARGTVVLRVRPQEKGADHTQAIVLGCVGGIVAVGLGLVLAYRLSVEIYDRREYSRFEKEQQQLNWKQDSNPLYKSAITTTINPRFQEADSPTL
Assay: Adhesion inhibition assay (BCEF-labeled RPMI 8866 cells on huMAdCAM-1-Ig coated plates)
Method: Biological Results. Adhesion Inhibition Assay Method RPMI 8866 cells are used in this assay. They are available in a medium with 10% FBS, 200 mM L-Glutamine, and penicillin/streptomycin 10x. 1. […] 8. Read plate in fluorescent plate reader (excite at 485 nm, read at 535 nm) and adjust the gain (total signal). […] 11. Read plate in fluorescent plate reader (excite at 485 nm, read at 535 nm). […]
Reported IC50 values follow for various compounds
measureName: IC50 (nM)

compound	unitTag	valueObserved
Cc1cccc(N2C(=O)NC(=O)/C(=C\C=C\c3ccccc3)C2=O)c1 [Example 16]	nM	900
Cc1cccc(N2C(=O)NC(=O)/C(=C\c3ccc[nH]3)C2=O)c1 [Example 24]	nM	2950
O=C1NC(=O)N(Cc2cccnc2)C(=O)/C1=C/c1c[nH]c2ccccc12 [Example 49]	nM	1300
Cc1ccccc1N1C(=O)NC(=O)/C(=C/C=C/c2ccccc2)C1=O [Example 35]	nM	2650
O=C1NC(=O)N(c2cccc3cccnc23)C(=O)/C1=C/C=C/c1ccccc1 [Example 51]	nM	2700
